- assayTarget: pooled human IgG
Known Enzyme Activity Endpoint Assay (purified): Fc of a selection of proteins
observationType: Enzyme Activity Endpoint Assay (purified): Fc

- protein: "PRT-60 (protein) MANQEIRYSEVTPYHVTSVWTKGVTPPANFTQGEDVFHAPYVANQGWYDITKTFNGKDDLLCGAATAGNMLHWWFDQNKDQIKRYLEEHPEKAKINFNGEQMFDVKEAIDTKNHQLDSKLFEYFKEKAFPYLSTKHLGVFPDHVIDMFINGYRLSLTNHGPTPVKEGSKDPRGGIFDAVFGRGDQSKLLTSRHDFKEKNLKEISDLIKKELTEGKALGLSHTYANVRINHVINLWGADFDSNGNLKAIYVTDSDSNASIGMKKYFVGVNSAGKVAISAKEIKEDNIGAQVLGLFTLSTGQDSWNQTN"
  observed: "133 ng/µL"
- protein: "PRT-627 (protein) MQITSVWTKGVTPLTPEQFRYNNEDVIHAPYLAHQGWYDITKAFDGKDNLLCGAATAGNMLHWWFDQNKEEIEAYLKKYGETQKIIFNNQELFDLKAAIDTKDSQTNSQLFNYFRDKAFPNLSARQLGVMPDLVLDMFINGYYLNVFKTQSTDVNRPYQDKDKRGGIFDAVFTRGDQTTLLTARHDLKNKGLNDISTIIKQELTEGRALALSHTYANVSISHVINLWGADFNAEGNLEAIYVTDSDANASIGMKKYFVGINAHGHVAISAKKIEGENIGAQVLGLFTLSSGKDIWQKLSLEHHHHHH"
  observed: "415 ng/µL"
- protein: "PRT-149 (protein) MANQEIRYSEVTPYHVTSVWTKGVTPPANFTQGEDVFHAPYVANQGWYDITKTFNGKDDLLCGAATAGNMLHWWFDQNKDQIKRYLEEHPEKQKINFNGEQMFDVKEAIDTKNHQLDSKLFEYFKEKAFPYLSTKHLGVFPDHVIDMFINGYRLSLTNHGPTPVKRQTKDPRGGIFDAVFGRGDQTKLLTSRHDFKEKNLKEISDLIKKELTEGKALGLSHTYANVRINHVINLWGADFDSNGNLKAIYVTDSDSNASIGMKKYFVGVNSAGKVAISAKEIKEDNIGAQVLGLFTLSTGQKSWNKTN"
  observed: "0 ng/µL"
- protein: "PRT-156 (protein) MANQEIRYSEVTPYHVTSVWTKGVTPPTDFTQGEDVFHAPYKANQGWYDITKTFNGKDDLLCGAATAGNMLHWWFDQNKDQIKRYLEEHPEKQKINFNGEQMFDVKEAIDTKNHQLDSKLFEYFKEKAFPYLSTKHLGVFPDHVIDMFINGYRLSLTNHGPTPVKEGSKDPRGGIFDAVFTRGDQSKLLTSRHDFKEKNLKEISDLIKKELTEGKALGLSHTYANVRINHVINLWGADFDSNGNLKAIYVTDSDSNASIGMKKYFVGVNSAGKVAISAKEIKEDNIGAQVLGLFTLSTGQDSWNQTN"
  observed: "205 ng/µL"
- protein: "PRT-227 (protein) MEVVEVWPYGQNPNGKTEILSQTEDSESLQRLRDIEDFQAEKKMQNVVYTKWLDGVDVKDHDFRKIVDGNIAYYATPLLNGRGFYDINKDFNRDSDKCAAAVAANMFHYWLDINRDNVDRFLRQNPEKHGIIELPDGQLKLSDFLNTYESDHGYRDKSKLFDFISNNFNGPVWTDKLLDNYINGYAYNYKYGRTIEDPTKNTSKINFFKEVFNEKILTNNHSIRNQNEFSVLLSEALYTGKAIGLSYGPAGLRHSLGHIISVWGADLDADGNVVAIYVTDSDDKKLTIGDERVGLKRYKISTDDENRLRLTAYEETHNTGGQIRGLYTLDTGKYAWADYFDKTEQTGTDQAEQLEHHHHHH"
  observed: "331 ng/µL"
- protein: "PRT-550 (protein) MANQEIRYSEETPKTITSIWTKGVTPPTDFIKNEDVLHAPYIANQGWYDITKTFNGKDDLLCGAATAGNMLHWWFDQNKEEIENYLKKHPEKQKINFNGEQMFDVKEAIDTKDSQTDSKLFEYFKDKAFPYLSTKHLGVFPDHVIDMFINGYRLSLTNHGPTPVKRGTKDPRGGIFDAVFTRGDQSKLLTARHDFKEKTLNEISDLIKQELTEGKALGLSHTYANVRINHVINLWGADFNSEGNLEAIYVTDSDSNASIGMKKYYVGVNAAGKVAISAKEIEGDNIGAQVLGLFTLSTGQDIWNQTNLEHHHHHH"
  observed: "389 ng/µL"
- protein: "PRT-80 (protein) MANQEIRYSEVTPKHITSVWTKGVTPPTQFIQGEDVFHAPYKANQGWYDITKTFNGKDDLLCGAATAGNMLHWWFDQNKEEIEAYLKKHPEKQKIMFGDQELLDVRKAINTKDDQTNSELFNYFRDKAFPNLSARRLGVMPDHVLDMFINGYYLNVNKTQTTDVNRTYQEKDPRGGIFDAVFTRGDQSKLLTSRHDFKEKTLKEISDLIKQELTEGKALGLSHTYANVRINHVINLWGADFDSNGNLKAIYVTDSDSDASIGMKKYFVGVNSAGKVAISAKEIKGDNIGAQVLGLFTLSTGQDIWNQTN"
  observed: "70 ng/µL"
- protein: "PRT-125 (protein) MRNATEAYAKEVPHQITSVWTKGVTPLTPEQFRYNNEDVFHAPYLANQGWYDITKTFDGKDNLLCGAATAGNMLHWWFDQNKTEIEAYLSKHPEKQKIIFNNQELFDLKAAIDTKDSQTNSQLFNYFRDKAFPNLSARQLGVMPDLVLDMFINGYYLNVFKTQSTDVNRPYQDKDKRGGIFDAVFTRGDQTKLLTARHDLKNKGLNDISTLIKQELTEGKALALSHTYANVSISHVINLWGADFNAEGNLEAIYVTDSDANASIGMKKYFVGVNAHGHVAISAKKIEGENIGAQVLGLFTLSSGKDIWQKLS"
  observed: "197 ng/µL"
